Give PEP Residual Activity (%) for every item shown.
# Target under test: prolyl endopeptidase (PEP) (Elizabethkingia meningoseptica)
# Construct: purchased Seikagaku Corporation (Tokyo, Japan)
# Sequence (P27028 21-705): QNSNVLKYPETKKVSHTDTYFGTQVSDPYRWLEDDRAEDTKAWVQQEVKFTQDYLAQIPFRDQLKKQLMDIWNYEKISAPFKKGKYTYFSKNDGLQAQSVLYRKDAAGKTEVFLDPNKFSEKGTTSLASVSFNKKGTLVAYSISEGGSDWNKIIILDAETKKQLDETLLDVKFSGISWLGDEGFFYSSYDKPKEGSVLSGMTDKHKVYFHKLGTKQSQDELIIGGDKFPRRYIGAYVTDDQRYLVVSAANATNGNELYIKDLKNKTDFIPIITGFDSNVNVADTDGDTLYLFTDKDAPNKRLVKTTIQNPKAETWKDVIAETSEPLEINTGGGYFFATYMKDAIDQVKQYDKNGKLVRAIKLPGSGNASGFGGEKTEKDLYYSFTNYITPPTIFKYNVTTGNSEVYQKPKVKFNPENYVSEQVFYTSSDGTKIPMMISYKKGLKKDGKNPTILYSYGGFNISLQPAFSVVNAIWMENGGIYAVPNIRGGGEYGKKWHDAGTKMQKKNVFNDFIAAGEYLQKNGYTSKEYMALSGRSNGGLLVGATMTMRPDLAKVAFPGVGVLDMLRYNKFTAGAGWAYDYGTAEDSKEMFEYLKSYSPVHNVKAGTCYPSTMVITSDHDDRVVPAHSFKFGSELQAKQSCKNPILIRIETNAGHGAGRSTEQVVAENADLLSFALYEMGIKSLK
# Test: biochemical
# Assay type: biochemical
# Conditions: peptide 1 mg/mL; % of control without peptide (100%); pH 7, 30 °C, 30 min; mean ± SD of three replicates; SD
Ends that are not written are not given here.
Provide the reading as a plain figure in %.

Annotate the substance RIPSKV [PKH4, synthetic peptide identified in proteinase K lactoferrin hydrolysate, RIPSKV] with its measured PEP Residual Activity (%). 109.6

Annotate the substance GILRPYL [PKH10, synthetic peptide identified in proteinase K lactoferrin hydrolysate, GILRPYL] with its measured PEP Residual Activity (%). 103.9

Annotate the substance NIPMGL [PKH9, synthetic peptide identified in proteinase K lactoferrin hydrolysate, NIPMGL] with its measured PEP Residual Activity (%). 95.5

Annotate the substance ENLPEKA [PKH3, synthetic peptide identified in proteinase K lactoferrin hydrolysate, ENLPEKA] with its measured PEP Residual Activity (%). 97.1

Annotate the substance SVDGKEDLIW [PKH11] with its measured PEP Residual Activity (%). 78.0

Annotate the substance GGRPTYEEY [PKH5, synthetic peptide identified in proteinase K lactoferrin hydrolysate, …] with its measured PEP Residual Activity (%). 96.9
